molecular target: HGF (human, UniProt P14210); assay: SPR
Sequence (P14210 32-728): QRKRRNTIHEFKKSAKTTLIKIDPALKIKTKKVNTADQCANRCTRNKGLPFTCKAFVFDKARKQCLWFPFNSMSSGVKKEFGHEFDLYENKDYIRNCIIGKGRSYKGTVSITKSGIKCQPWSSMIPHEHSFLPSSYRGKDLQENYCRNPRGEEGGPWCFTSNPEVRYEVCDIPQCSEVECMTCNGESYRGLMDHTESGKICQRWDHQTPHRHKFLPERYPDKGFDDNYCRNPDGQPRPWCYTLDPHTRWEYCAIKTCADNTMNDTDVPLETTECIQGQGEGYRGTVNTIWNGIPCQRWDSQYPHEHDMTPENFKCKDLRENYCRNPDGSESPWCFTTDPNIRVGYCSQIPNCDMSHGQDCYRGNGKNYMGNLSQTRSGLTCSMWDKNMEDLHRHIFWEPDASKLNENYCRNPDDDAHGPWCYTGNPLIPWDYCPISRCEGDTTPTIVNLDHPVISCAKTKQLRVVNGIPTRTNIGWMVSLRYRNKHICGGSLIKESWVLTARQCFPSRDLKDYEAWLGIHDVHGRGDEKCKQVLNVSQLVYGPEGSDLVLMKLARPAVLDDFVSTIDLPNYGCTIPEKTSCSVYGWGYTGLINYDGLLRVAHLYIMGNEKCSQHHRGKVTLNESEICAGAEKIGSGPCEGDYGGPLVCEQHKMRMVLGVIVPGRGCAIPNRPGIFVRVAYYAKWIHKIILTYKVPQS
metric: pKd
Reminder that pKd is minus the log10 of a molar concentration.

Request: Give reported pKd value for DVD045 HGF arm (antibody, V domains shown, DVD-Ig inner) VH: QVQLVESGGGLVKPGGSLRLSCAASGFTFSDYYMSWIRQAPGKGLEWVSYISSSGSTIYYADSVKGRFTISRDNAKNSLYLQMNSLRAEDTAVYYCARDEYNSGWYVLFDYWGQGTLVTVSS VL: DIQMTQSPSSVSASVGDRVTITCRASQGISSWLAWYQQKPGKAPNLLIYEASSLQSGVPSRFGGSGSGTDFTLTISSLQPEDFATYYCQQANGFPWTFGQGTKVEIKR
Result: 9.05

Entry source: patent US9029508
